Hi! I'm sharing some pIC50 results obtained with Vasopressin V2 receptor (Homo sapiens).
Sequence (P30518 whole entry): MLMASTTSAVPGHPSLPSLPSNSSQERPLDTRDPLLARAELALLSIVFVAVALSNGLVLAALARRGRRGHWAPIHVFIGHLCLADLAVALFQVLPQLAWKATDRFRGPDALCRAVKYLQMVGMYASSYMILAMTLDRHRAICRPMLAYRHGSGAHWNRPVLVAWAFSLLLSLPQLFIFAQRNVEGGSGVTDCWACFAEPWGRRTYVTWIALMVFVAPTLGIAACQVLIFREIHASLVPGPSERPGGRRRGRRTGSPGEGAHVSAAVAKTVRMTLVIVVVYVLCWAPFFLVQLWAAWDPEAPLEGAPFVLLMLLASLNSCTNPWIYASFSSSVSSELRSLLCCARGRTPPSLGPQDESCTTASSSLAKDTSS
The read-out pIC50 is expressed as -log10 of concentration in moles per litre.

Known results for compounds:
compound: C=CCNC1CCCN(C(=O)c2ccc(NC(=O)c3ccccc3C)cc2)c2ccc(Cl)cc21 (centres undefined) [benzazepine derivative, 18]
endpoint result: 7.74
//
compound: Cc1ccccc1C(=O)Nc1ccc(C(=O)N2CCCC(N(C)C)c3ccc(Cl)cc32)cc1 (centres undefined) [benzazepine derivative, 15]
endpoint result: 7.20
//
compound: Cc1ccccc1C(=O)Nc1ccc(C(=O)N2CCCC(N(C)C)c3c(Cl)cccc32)cc1 (centres undefined) [benzazepine derivative, 17]
endpoint result: 6.72

With those in mind, consider the next compound.
Please look up its pIC50: C=CCN(C)C1CCCN(C(=O)c2ccc(NC(=O)c3ccccc3C)cc2)c2ccc(Cl)cc21 (centres undefined) [benzazepine derivative, 19]
7.01

* * *

pIC50 for assorted compounds
# target desc: Vasopressin V1a receptor (Homo sapiens, UniProt P37288)
# Sequence (P37288 whole entry): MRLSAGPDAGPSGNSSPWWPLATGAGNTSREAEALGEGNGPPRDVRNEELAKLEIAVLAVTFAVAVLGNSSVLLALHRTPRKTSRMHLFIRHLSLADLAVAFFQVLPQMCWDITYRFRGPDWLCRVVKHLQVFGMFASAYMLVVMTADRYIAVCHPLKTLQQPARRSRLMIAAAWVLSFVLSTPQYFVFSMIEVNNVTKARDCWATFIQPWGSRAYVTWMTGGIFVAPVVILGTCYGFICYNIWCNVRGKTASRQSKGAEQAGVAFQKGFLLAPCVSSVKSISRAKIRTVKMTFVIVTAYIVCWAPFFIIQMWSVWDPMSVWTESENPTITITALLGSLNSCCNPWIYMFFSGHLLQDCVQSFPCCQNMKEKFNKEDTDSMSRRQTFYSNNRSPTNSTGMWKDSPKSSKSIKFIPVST
# protocol details: Radioligand Binding Assay to HeLa Cells
# cond: pH 7.4; 4 °C
The read-out pIC50 is expressed as -log10 of concentration in moles per litre.

Known results for compounds:
compound: Cc1ccccc1C(=O)Nc1ccc(C(=O)N2CCCC(O)c3cc(Cl)ccc32)cc1Cl (configuration not stated) [benzazepine derivative, 31]
pIC50: 7.51

compound: Cc1ccccc1C(=O)Nc1ccc(C(=O)N2CCCC(N(C)C)c3cccc(Cl)c32)cc1 (configuration not stated) [benzazepine derivative, 16]
pIC50: 6.27

compound: C=CCN(C)C1CCCN(C(=O)c2ccc(NC(=O)c3ccccc3C)cc2)c2ccc(Cl)cc21 (configuration not stated) [benzazepine derivative, 19]
pIC50: 6.46

compound: Cc1ccccc1C(=O)Nc1ccc(C(=O)N2CCCC(N(C)C)c3ccc(Cl)cc32)cc1 (configuration not stated) [benzazepine derivative, 15]
pIC50: 5.92

compound: CNC1CCCN(C(=O)c2ccc(NC(=O)c3ccccc3C)cc2)c2ccc(Cl)cc21 (configuration not stated) [benzazepine derivative, 13a]
pIC50: 7.19

compound: C=CCNC1CCCN(C(=O)c2ccc(NC(=O)c3ccccc3C)cc2)c2ccc(Cl)cc21 (configuration not stated) [benzazepine derivative, 18]
pIC50: 7.35

compound: Cc1ccccc1C(=O)Nc1ccc(C(=O)N2CCCC(O)c3cc(Cl)ccc32)c(Cl)c1 (configuration not stated) [benzazepine derivative, 30]
pIC50: 6.54

compound: Cc1ccccc1C(=O)Nc1ccc(C(=O)N2CCCC(N(C)C)c3c(Cl)cccc32)cc1 (configuration not stated) [benzazepine derivative, 17]
pIC50: 5.77

compound: C=CCOC1CCCN(C(=O)c2ccc(NC(=O)c3ccccc3C)cc2)c2ccc(Cl)cc21 (configuration not stated) [benzazepine derivative, 22]
pIC50: 7.28

compound: Cc1ccccc1C(=O)Nc1ccc(C(=O)N2CCCC(O)c3cc(Cl)ccc32)cc1 (configuration not stated) [benzazepine derivative, 20]
pIC50: 7.77

State its pIC50 on Vasopressin V1a receptor (Homo sapiens, UniProt P37288): COC1CCCN(C(=O)c2ccc(NC(=O)c3ccccc3C)cc2)c2ccc(Cl)cc21 (configuration not stated) [benzazepine derivative, 21]
7.47

State its pIC50 on Vasopressin V1a receptor (Homo sapiens, UniProt P37288): Cc1ccccc1C(=O)Nc1ccc(C(=O)N2CCCC(N(C)C)c3cc(Cl)ccc32)cc1 (configuration not stated) [benzazepine derivative, 14]
6.72
